B1: Calcium-binding protein 2, residues 155 to 219; numbered along this chain, Q9NPB3 (parent)
chain: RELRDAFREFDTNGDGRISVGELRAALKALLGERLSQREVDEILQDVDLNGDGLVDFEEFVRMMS

Variants of: B1
Experiment: abundance fitness (aPCA) (normalised: wild type 0, dead -1); higher = more abundant; growth selection in yeast, the domain comes from the species named
Settings: Homo sapiens
Hi there, I'd appreciate the recorded abundance fitness for every entry that follows.

R62F; -0.218
F60E; -0.672
G16S; -0.261
E59W; -0.259
E2H; -0.086
I18E; -1.01

Look up abundance fitness for the entries below, preserving their order.
1. I43Y
2. L27C
3. R17F
4. A26C
5. D46S

Out:
[-0.345, 0.014, -0.021, 0.215, -0.123]

Look up abundance fitness for the entries below, preserving their order.
1. F60D
2. R38M

Out:
1. -0.71
2. -0.112
